Each record here notes measured pIC50.
- measurement-target: Acetylcholinesterase (Rattus norvegicus)
- Sequence (P37136 32-614): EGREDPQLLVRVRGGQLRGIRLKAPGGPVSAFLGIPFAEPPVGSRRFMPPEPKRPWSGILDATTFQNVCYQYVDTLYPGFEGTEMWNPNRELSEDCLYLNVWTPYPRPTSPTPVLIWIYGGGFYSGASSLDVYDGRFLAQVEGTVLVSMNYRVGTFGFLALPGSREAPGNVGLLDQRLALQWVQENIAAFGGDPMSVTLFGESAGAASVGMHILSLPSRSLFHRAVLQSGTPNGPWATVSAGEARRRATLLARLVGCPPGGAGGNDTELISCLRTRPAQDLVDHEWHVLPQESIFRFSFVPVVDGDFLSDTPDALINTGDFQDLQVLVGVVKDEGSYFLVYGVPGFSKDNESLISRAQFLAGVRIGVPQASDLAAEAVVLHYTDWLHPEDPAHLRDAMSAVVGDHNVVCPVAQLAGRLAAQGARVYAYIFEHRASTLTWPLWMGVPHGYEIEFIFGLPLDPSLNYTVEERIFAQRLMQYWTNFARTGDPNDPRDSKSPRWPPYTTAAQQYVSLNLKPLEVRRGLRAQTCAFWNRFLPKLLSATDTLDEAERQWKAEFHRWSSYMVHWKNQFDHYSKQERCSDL
pIC50: −log10 of the molar value.
test-readout: pIC50

compound: CCCn1c2c(ccc1=O)C(NCCc1ccccc1)CCC2 (stereo not shown) [fumarate]
test-readout: pIC50
readout-number: 5.51
--
compound: COc1ccc(CCNC2CCCc3c2ccc(=O)n3C)cc1 (stereo not shown)
test-readout: pIC50
readout-number: 5.02
--
compound: Cn1c2c(ccc1=O)C(NCCc1ccc(Cl)c(Cl)c1)CCC2 (stereo not shown)
test-readout: pIC50
readout-number: 5.54
--
compound: Cn1c2c(ccc1=O)C(NCCc1ccc(Cl)cc1)CCC2 (stereo not shown)
test-readout: pIC50
readout-number: 5.18
